STUDY SYSTEM: hRIPK1 (aa 1-375) fusion protein (Homo sapiens, UniProt Q13546)
Construct: hRIPK1 (aa 1-375) fusion protein
Sequence (Q13546 1-375): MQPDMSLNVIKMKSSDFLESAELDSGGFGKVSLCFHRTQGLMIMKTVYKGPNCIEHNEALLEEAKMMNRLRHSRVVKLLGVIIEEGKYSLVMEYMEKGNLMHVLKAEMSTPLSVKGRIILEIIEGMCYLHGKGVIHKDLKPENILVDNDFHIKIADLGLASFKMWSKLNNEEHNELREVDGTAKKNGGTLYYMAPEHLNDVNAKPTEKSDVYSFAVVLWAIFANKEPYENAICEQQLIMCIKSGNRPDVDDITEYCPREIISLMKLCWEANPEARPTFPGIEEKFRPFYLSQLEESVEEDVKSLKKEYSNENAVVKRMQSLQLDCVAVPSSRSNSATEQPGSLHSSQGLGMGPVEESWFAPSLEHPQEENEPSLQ
PROCEDURE DETAILS: Receptor-Interacting Protein Kinase 1 inhibition, ADP Glo assay (conversion of ATP to ADP due to autophosphorylation)
CONDITION PARAMETERS: ATP 50 μM, 30 min preincubation, 240 min incubation, room temperature, DMSO 1%
Method: The catalytic activity of RIPK1 was measured by monitoring the conversion of Adenosine triphosphate (ATP) to Adenosine diphosphate (ADP) due to autophosphorylation using an ADP-Glo kinase kit (Promega, catalog no. V9104). […]
Assignment: determine reported pIC50 for the given molecules.
Numbers only, as −log10 of the molar value.

For every item in the list below, what is its measured pIC50?
1. O=C1CCC(=O)N1c1ccc(Cl)c(OC[C@H]2CC[C@H](C(=O)N3OCC[C@H]3c3cc(F)cc(F)c3)CC2)c1
2. N#Cc1ccnc(N[C@H]2C[C@@H](C(=O)N3OCC[C@H]3c3cccc(F)c3)C2)n1
3. Cc1cc(C)n(-c2ccc(OC[C@H]3CC[C@H](C(=O)N4OCC[C@H]4c4cncc(C#N)c4)CC3)c(F)c2)n1

1: 7.36; 2: 7.62; 3: 7.68

For every item in the list below, what is its measured pIC50?
1. NC(=O)c1cc(OCC2CCC(C(=O)N3OCC[C@H]3c3cc(F)cc(F)c3)C2)ncn1 (single isomer, unassigned; stereoisomer 1) [Compound 118]
2. C[C@]1(C(=O)N2OCC[C@H]2c2cc(F)cc(F)c2)C[C@@H](Nc2nccc(C#N)n2)C1

1. 7.70
2. 7.42

For every item in the list below, what is its measured pIC50?
1. C[C@]1(C(=O)N2OCC[C@H]2c2cc(F)cc(F)c2)C[C@@H](Nc2nccc(C(N)=O)n2)C1
2. N#Cc1ccnc(NC[C@H]2CC[C@H](C(=O)N3OCC[C@H]3c3ccc(Cl)cc3)CC2)n1
3. NC(=O)c1cc(OCC2CCC(C(=O)N3OCC[C@H]3c3cc(F)cc(F)c3)C2)ncn1 (single isomer, unassigned; stereoisomer 2) [Compound 119]
4. N#Cc1cc(F)cc([C@@H]2CCON2C(=O)C2CCCC(COc3cc(C(N)=O)ncn3)CC2)c1 (single isomer, unassigned) [Compound 128]
5. O=C([C@H]1C[C@@H](n2ccc3cc(F)ccc32)C1)N1OCC[C@H]1c1cc(F)cc(F)c1
6. O=C([C@H]1C[C@@H](n2cnc3ccccc32)C1)N1OCC[C@H]1c1cc(F)cc(F)c1

7.68
7.48
7.54
7.70
7.59
7.80

For every item in the list below, what is its measured pIC50?
1. N#Cc1cncc([C@@H]2CCON2C(=O)[C@H]2CC[C@H](COc3ccc(Cl)c(C(N)=O)c3)CC2)c1
2. C[C@]1(C(=O)N2OCC[C@H]2c2cncc(C#N)c2)C[C@@H](Nc2nccc(C(N)=O)n2)C1

1: 7.37; 2: 7.64

Entry NC(=O)c1cc(OCC2CCCC(C(=O)N3OCC[C@H]3c3cc(F)cc(F)c3)CC2)ncn1 (single isomer, unassigned; stereoisomer 1) [Compound 122] : reported pIC50 = ?
7.77

// data source = patent US20260317312A1
